Please provide measured herbicidal activity inhibition ratio (%), Setaria viridis for the entries that follow.
Tested on: setaria viridis
assay summary: Herbicidal activity, pot culture method (primary and secondary screening test)
Type: in vivo
reported conditions: primary screening, pot culture, 150 g/ha, sprayed at 3-leaf stage, result 15 days later
Express your answer as a number followed by its unit.

Answered cases to consult:
CC1CC(=O)C(C(=O)c2ccc3c(c2)c(=O)n(-c2ccc(Br)cc2)c(=O)n3C)=C(O)C1 (stereo not shown) | 85%
Cc1ccc(-n2c(=O)c3cc(C(=O)C4=C(O)CCCC4=O)ccc3n(C)c2=O)cc1 | 75%
COc1ccc(-n2c(=O)c3cc(C(=O)C4=C(O)CC(C)(C)CC4=O)ccc3n(C)c2=O)cc1 | 60%

Now for a further compound.
Prompt line: Name the recorded herbicidal activity inhibition ratio (%), Setaria viridis of the compound listed here: CCn1c(=O)n(-c2ccc(Cl)cc2)c(=O)c2cc(C(=O)C3=C(O)CCCC3=O)ccc21
Response line: 50%

----------
Please provide measured herbicidal activity inhibition ratio (%), Eclipta prostrata for the entries that follow.
System: eclipta prostrata
assay summary: Herbicidal activity, pot culture method (primary and secondary screening test)
Assay type: in vivo
reported conditions: primary screening, pot culture, 150 g/ha, sprayed at 3-leaf stage, result 15 days later
Description: This test example is for describing the herbicidal activity inhibition ratio (%) (the dose is 150 g/ha) of the compound with a structure shown in Formula (I). Primary screening test (pot culture method): The test targets are abutilon theophrasti, digitaria sanguinalis, amaranthus retroflexus, echinochloa crusgalli, eclipta prostrata and setaria viridis. […]

Answered cases to consult:
C#CCn1c(=O)n(-c2ccccc2C)c(=O)c2cc(C(=O)C3=C(O)CC(C)(C)CC3=O)ccc21 [Compound 78] | 0%
Cn1c(=O)n(-c2ccc(C(F)(F)F)cc2)c(=O)c2cc(C(=O)C3=C(O)CC(C)(C)CC3=O)ccc21 [Compound 31] | 55%

# per-item lookup of herbicidal activity inhibition ratio (%), Eclipta prostrata; items listed below
1. CCCCn1c(=O)n(-c2ccccc2C)c(=O)c2cc(C(=O)C3=C(O)CC(C)(C)CC3=O)ccc21 [Compound 74]
2. Cn1c(=O)n(-c2ccc(F)cc2)c(=O)c2cc(C(=O)C3=C(O)CC(C)(C)CC3=O)ccc21 [Compound 22]
3. Cn1c(=O)n(-c2ccccc2Cl)c(=O)c2cc(C(=O)C3=C(O)CCCC3=O)ccc21 [Compound 5]

Response line:
["0%", "90%", "80%"]

# per-item lookup of herbicidal activity inhibition ratio (%), Eclipta prostrata; items listed below
1. CCc1ccccc1-n1c(=O)c2cc(C(=O)C3=C(O)CC(C)(C)CC3=O)ccc2n(C)c1=O [Compound 89]
2. Cc1c(C(=O)C2=C(O)CCCC2=O)ccc2c1c(=O)n(-c1ccccc1C(F)(F)F)c(=O)n2C [Compound 92]

Response line:
70%
100%

# per-item lookup of herbicidal activity inhibition ratio (%), Eclipta prostrata; items listed below
1. CCc1ccccc1-n1c(=O)c2cc(C(=O)C3=C(O)CCCC3=O)ccc2n(C)c1=O [Compound 47]
2. Cc1ccccc1-n1c(=O)c2cc(C(=O)C3=C(O)CCCC3=O)ccc2n(Cc2ccccc2F)c1=O [Compound 83]
3. C#CCn1c(=O)n(-c2ccccc2C)c(=O)c2cc(C(=O)C3=C(O)CCCC3=O)ccc21 [Compound 77]
4. CCn1c(=O)n(-c2ccccc2C)c(=O)c2cc(C(=O)C3=C(O)CC(C)CC3=O)ccc21 (stereo not drawn) [Compound 70]
5. Cn1c(=O)n(-c2cccc(F)c2)c(=O)c2cc(C(=O)C3=C(O)CCCC3=O)ccc21 [Compound 10]

Response line:
1: 85%; 2: 90%; 3: 35%; 4: 100%; 5: 80%

Cited source: patent US9771334B2
